Biological target: Carnitine O-palmitoyltransferase 1, muscle isoform (Rattus norvegicus, UniProt Q63704)
Sequence (Q63704 whole entry, canonical isoform): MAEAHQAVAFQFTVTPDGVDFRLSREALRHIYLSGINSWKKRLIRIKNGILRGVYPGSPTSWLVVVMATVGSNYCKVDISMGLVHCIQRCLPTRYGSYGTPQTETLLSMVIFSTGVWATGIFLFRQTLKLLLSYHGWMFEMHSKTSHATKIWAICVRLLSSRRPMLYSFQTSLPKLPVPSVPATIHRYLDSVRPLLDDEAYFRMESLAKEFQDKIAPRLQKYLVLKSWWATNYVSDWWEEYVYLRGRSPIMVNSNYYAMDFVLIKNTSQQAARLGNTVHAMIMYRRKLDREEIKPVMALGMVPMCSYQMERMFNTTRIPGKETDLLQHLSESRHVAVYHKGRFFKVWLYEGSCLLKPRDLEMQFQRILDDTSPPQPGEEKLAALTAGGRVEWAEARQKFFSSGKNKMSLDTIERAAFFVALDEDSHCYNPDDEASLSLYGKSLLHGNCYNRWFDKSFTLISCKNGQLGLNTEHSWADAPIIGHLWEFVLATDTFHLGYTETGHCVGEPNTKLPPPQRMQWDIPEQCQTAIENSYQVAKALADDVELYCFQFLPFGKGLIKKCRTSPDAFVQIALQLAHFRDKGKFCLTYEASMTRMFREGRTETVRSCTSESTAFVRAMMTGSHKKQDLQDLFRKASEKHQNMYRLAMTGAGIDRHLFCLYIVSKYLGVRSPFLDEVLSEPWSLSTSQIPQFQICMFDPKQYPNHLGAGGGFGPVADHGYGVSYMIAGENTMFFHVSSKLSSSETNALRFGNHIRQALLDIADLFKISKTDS
Assay: Inhibition of Wistar rat heart mitochondrial CPT-1 assessed as reduction in conversion of palmitoyl CoA and L-carnitine into palmitoylcarnitine preincubated for 3 mins followed by L-carnitine and palmitoyl CoA addition measured for 3.5 mins by spectrophotometric analysis
MEASUREMENT_NAME: log10 of IC50 (log10 of the value in µM)
Give log10 of IC50, with IC50 taken in µM.

MOLECULE | TESTED_TARGET | RECORDED_RESULT
C1CCC(C(CC2CCCCN2)C2CCOCC2)CC1 (stereo unspecified) | Carnitine O-palmitoyltransferase 1, muscle isoform (Rattus norvegicus, UniProt Q63704) | 2.85

Item FC1(F)CCC(C(CC2CCCCN2)C2CCCCC2)CC1 (stereo unspecified) : provide log10 of IC50
1.65

Item FC1(F)CCC(C(CC2CCCCN2)C2CCC(F)(F)CC2)CC1 (stereo unspecified) : provide log10 of IC50
1.94

Item C1CCC(C(CC2CCCCN2)C2CCCCC2)CC1 (racemic) [PERHEXILINE] : provide log10 of IC50
1.04

* * *

The compounds listed here are annotated with their concentration at 1 h.
Experiment: Plasma concentration in Sprague-Dawley rat at 10 mg/kg, po administered via gavage every 24 hrs measured at 1 hr post dose by LC-MS/MS analysis
Type: ADME, organism-based
Report the value in ng/mL with no unit label.

COMPOUND | concentration at 1 h, ng/mL
FC1(F)CCC(C(CC2CCCCN2)C2CCCCC2)CC1 (configuration not stated) | 386

Item C1CCC(C(CC2CCCCN2)C2CCCCC2)CC1 (racemic) : provide concentration at 1 h
99.9

* * *

Assay: AUC (0 to 24 hrs) in BALB/c mouse plasma at 10 mg/kg, po administered via gavage every 24 hrs for 7 days measured post last dose by LC-MS/MS analysis
Format: ADME, organism-based
Set-up: dose 10 mg/kg, time < 24 hr, route oral
MEASUREMENT_NAME: AUC at 24 h (ng·h/mL)
Report the value in ng·h/mL with no unit label.

COMPOUND | DISPLAY_UNIT | AUC at 24 h
FC1(F)CCC(C(CC2CCCCN2)C2CCCCC2)CC1 (configuration not stated) | ng·h/mL | 3760

--- query ---
Item C1CCC(C(CC2CCCCN2)C2CCCCC2)CC1 (racemic) : provide AUC at 24 h
876

* * *

Assay: Half life in Sprague-Dawley rat liver microsomes at 3 uM up to 45 mins in presence of NADPH by LC-MS/MS analysis
Assay type: ADME, microsome
MEASUREMENT_NAME: half-life at 3 µM (min)
Report the value in min with no unit label.

Consider the worked cases shown below.
COMPOUND | MEASUREMENT_NAME | RECORDED_RESULT
C1CCC(CC(C2CCCC2)C2CC2)NC1 (configuration not stated) | half-life at 3 µM | 3
FC1(F)CCC(C(CC2CCCCN2)C2CCCCC2)CC1 (configuration not stated) | half-life at 3 µM | 72
C1CCC(C(CC2CCCCN2)C2CCCCC2)CC1 (racemic) | half-life at 3 µM | 21
C1CCC(CC(C2CCCC2)C2CCC2)NC1 (configuration not stated) | half-life at 3 µM | 7
C1CCC(C(CC2CCCCN2)C2CC2)CC1 (configuration not stated) | half-life at 3 µM | 3

Item Fc1ccc(C(CC2CCCCN2)C2CCCCC2)cc1 (configuration not stated) : provide half-life at 3 µM
7

Item C1CCC(C(CC2CCCCN2)C2CCC2)CC1 (configuration not stated) : provide half-life at 3 µM
10

Item C1CCC(CC(C2CCCC2)C2CCCC2)NC1 (configuration not stated) : provide half-life at 3 µM
14

Item C1CCC(C(CC2CCCCN2)C2CCCCC2)CC1.O=C(O)/C=C\C(=O)O (configuration not stated) [PERHEXILINE MALEATE] : provide half-life at 3 µM
10

Item c1ccc(C(CC2CCCCN2)C2CCCCC2)cc1 (configuration not stated) : provide half-life at 3 µM
4

Item CC1(C)CCC(C(CC2CCCCN2)C2CCCCC2)CC1 (configuration not stated) : provide half-life at 3 µM
20
